Target: T1, human MIC-1 receptor (hGFRAL, GDNF family receptor alpha like), full length (human, UniProt Q6UXV0 19-394)
T1 sequence (looked up): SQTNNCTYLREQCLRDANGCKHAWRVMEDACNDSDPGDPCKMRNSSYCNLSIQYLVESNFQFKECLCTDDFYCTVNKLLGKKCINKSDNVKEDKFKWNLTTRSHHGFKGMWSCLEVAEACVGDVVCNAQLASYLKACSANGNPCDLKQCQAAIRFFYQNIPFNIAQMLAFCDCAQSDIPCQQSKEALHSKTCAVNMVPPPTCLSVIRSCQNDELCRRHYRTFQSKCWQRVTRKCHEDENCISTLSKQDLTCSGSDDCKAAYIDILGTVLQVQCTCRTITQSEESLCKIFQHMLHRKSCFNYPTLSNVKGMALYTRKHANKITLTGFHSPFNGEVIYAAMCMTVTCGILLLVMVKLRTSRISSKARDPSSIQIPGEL
Test: cell-based or functional assay
Label 1 when pERK EC50 (nM) >= 0.4 nM; otherwise -1.

See these solved cases before continuing.
MIC-1(R2A,N3E,K107E) (ligand) AAEGDHCPLGPGRCCRLHTVRASLEDLGWADWVLSPREVQVTMCIGACPSQFRAANMHAQIKTSLHRLKPDTVPAPCCVPASYNPMVLIQKTDTGVSLQTYDDLLAEDCHCI    -1
AAPEDEETPEQE-MIC-1-Δ1-3 (ligand) AAPEDEETPEQEGDHCPLGPGRCCRLHTVRASLEDLGWADWVLSPREVQVTMCIGACPSQFRAANMHAQIKTSLHRLKPDTVPAPCCVPASYNPMVLIQKTDTGVSLQTYDDLLAKDCHCI    1
(AEE)3AES-MIC-1-Δ1-3 (ligand) AEEAEEAEEAESGDHCPLGPGRCCRLHTVRASLEDLGWADWVLSPREVQVTMCIGACPSQFRAANMHAQIKTSLHRLKPDTVPAPCCVPASYNPMVLIQKTDTGVSLQTYDDLLAKDCHCI    1
AES-MIC-1-Δ1-3 (ligand) AESGDHCPLGPGRCCRLHTVRASLEDLGWADWVLSPREVQVTMCIGACPSQFRAANMHAQIKTSLHRLKPDTVPAPCCVPASYNPMVLIQKTDTGVSLQTYDDLLAKDCHCI    -1

stdin: Check the entry AAPDEGTEEETEGSGSGSGSGS-MIC-1-Δ1-3 (ligand) AAPDEGTEEETEGSGSGSGSGSGDHCPLGPGRCCRLHTVRASLEDLGWADWVLSPREVQVTMCIGACPSQFRAANMHAQIKTSLHRLKPDTVPAPCCVPASYNPMVLIQKTDTGVSLQTYDDLLAKDCHCI : does pERK EC50 (nM) equal or exceed 0.4 nM?
stdout: 1

stdin: Also, MIC-1(R2A,N3E,K69E) (ligand) AAEGDHCPLGPGRCCRLHTVRASLEDLGWADWVLSPREVQVTMCIGACPSQFRAANMHAQIKTSLHRLEPDTVPAPCCVPASYNPMVLIQKTDTGVSLQTYDDLLAKDCHCI please.
stdout: 1

stdin: Could you do the same for (AEE)6AES-MIC-1 (ligand) AEEAEEAEEAEEAEEAEEAESGDHCPLGPGRCCRLHTVRASLEDLGWADWVLSPREVQVTMCIGACPSQFRAANMHAQIKTSLHRLKPDTVPAPCCVPASYNPMVLIQKTDTGVSLQTYDDLLAKDCHCI , please?
stdout: 1
